Sourced from ChEMBL document CHEMBL1156106

# Tested on: Rattus norvegicus
# ASSAY_REMARKS: Effect on behavioural activity in rat assessed as cocaine-induced lever response at 10 mg/kg, po pretreated with cocaine for 90 mins by drug-discrimination studies
# Type: functional
MEASUREMENT_LABEL: Activity (%)

> print(dat)
                                    compound  result
 1  CC(NC1CCCC1)C(=O)c1cccc(Cl)c1 (stereo not drawn)      33
 2  CC(NC(C)(C)C)C(=O)c1cccc(Br)c1 (stereo not drawn)       0
 3  CC(NC(C)(C)C)C(=O)c1cccc(F)c1 (stereo not drawn)       0
 4  CC(NC(C)(C)C)C(=O)c1cc(F)cc(F)c1 (stereo not drawn)      33
 5  CC(NC(C)(C)C)C(=O)c1ccccc1 (stereo not drawn)       0
 6  CCCC(NC(C)(C)C)C(=O)c1cccc(Cl)c1 (stereo not drawn)       0
 7  CCC(NC(C)(C)C)C(=O)c1ccc(Cl)c(Cl)c1 (stereo not drawn)       0
 8  CC(NC1CC1)C(=O)c1cccc(Cl)c1 (stereo not drawn)      33
 9  CC(NC(C)(C)C)C(=O)c1cccc(Cl)c1 (stereo not drawn) [BUPROPION]       1
10  CCCCCCC(NC(C)(C)C)C(=O)c1cccc(Cl)c1 (stereo not drawn)       0
11  CC(C(=O)c1cccc(Cl)c1)N(C)C (stereo not drawn)     100
12  CCCCC(NC(C)(C)C)C(=O)c1cccc(Cl)c1 (stereo not drawn)       0
13  CCCC(NC(C)(C)C)C(=O)c1ccc(Cl)c(Cl)c1 (stereo not drawn)       0
